The measurements presented in this section are drawn from PubChem BioAssay AID624129.

Biological target: Apelin receptor (Homo sapiens)
Assay: potency against CXCR6 with APJ panel – cell-based, beta-arrestin, DiscoveRx, uHTS hits, dose response (AID 624129)
Conditions: CXCR6 beta-arrestin (DiscoveRx) antagonist cell assay, APJ, run 3, dose range 1
pIC50: −log10 of the molar value.

{"compound": "CC(=O)OC1C2(CC3N4C(=O)C5(CO)SSC4(CC31O)C(=O)N5C)OC(C)C(C)(C)C2=O (configuration not stated)", "measurement qualifier": "=", "pIC50": 5.79}
{"compound": "O=[N+]([O-])c1cc([N+](=O)[O-])c2cc3ccccc3nc2c1", "measurement qualifier": "<", "pIC50": 4.10}
{"compound": "CCO[C@@H]1OC(C(=O)N2CCN(Cc3ccccc3)CC2)=C[C@H](c2ccc(Br)cc2)[C@H]1CCCO", "measurement qualifier": "=", "pIC50": 4.69}
{"compound": "COc1ccc(OC)c2sc(N(CCCN(C)C)C(=O)CCS(=O)(=O)c3ccccc3)nc12", "measurement qualifier": "=", "pIC50": 4.72}
{"compound": "CCOc1ccc(NC(=O)CN(C)S(=O)(=O)c2cccs2)cc1", "measurement qualifier": "<", "pIC50": 4.10}
{"compound": "CS(=O)(=O)c1ncc(Cl)c(C(=O)Nc2ccc3ccccc3c2)n1", "measurement qualifier": "<", "pIC50": 4.10}
{"compound": "COc1cc(/C=C/c2ccc3c(Br)cc(Br)c(O)c3n2)ccc1O", "measurement qualifier": "=", "pIC50": 4.49}
{"compound": "N#CC(C#N)=C1C=CC=CN1/C(=C\\c1ccco1)C(=O)c1ccc(Cl)cc1", "measurement qualifier": "=", "pIC50": 4.47}
{"compound": "CCOC(=O)CSc1cccc2cccnc12", "measurement qualifier": "=", "pIC50": 5.29}
{"compound": "Cn1nc([N+](=O)[O-])nc1Sc1cccc2cccnc12", "measurement qualifier": "=", "pIC50": 4.88}
{"compound": "COc1ccc(N2C(=O)CC(Sc3nnnn3-c3ccc(F)cc3)C2=O)cc1 (configuration not stated)", "measurement qualifier": "<", "pIC50": 4.10}
{"compound": "O=C(Nc1nnc(SCc2ccc(F)cc2)s1)c1ccccn1", "measurement qualifier": "=", "pIC50": 5.42}
{"compound": "CCOC(=O)c1c(SCCN2CCCC2)n(-c2ccccc2)c(=S)n(-c2ccccc2)c1=O", "measurement qualifier": "<", "pIC50": 4.10}
{"compound": "CCCC1CCC(=NNC(=S)NCCc2ccccc2)CC1 (configuration not stated)", "measurement qualifier": "<", "pIC50": 4.10}
{"compound": "COc1cc(/C=C/c2ccc3cccc(O)c3n2)ccc1O", "measurement qualifier": "=", "pIC50": 4.67}
{"compound": "CCOc1ccc2nc(NC(=O)c3ccccn3)sc2c1", "measurement qualifier": "=", "pIC50": 4.93}
{"compound": "Cc1cc(S(=O)(=O)c2ccc(Cl)cc2)nc(S(=O)(=O)c2ccc(Cl)cc2)c1C#N", "measurement qualifier": "=", "pIC50": 4.24}
{"compound": "O=C(OCn1ncc(Cl)c(Cl)c1=O)c1cccc(C(F)(F)F)c1", "measurement qualifier": "=", "pIC50": 4.39}
{"compound": "CC(=O)OCCNc1cc(Sc2nc3ccccc3[nH]2)c2nonc2c1[N+](=O)[O-]", "measurement qualifier": "=", "pIC50": 5.12}
{"compound": "CCCOc1cccc(-c2cc(C(=O)N/N=C/c3ccccn3)c3ccccc3n2)c1", "measurement qualifier": "<", "pIC50": 4.10}
{"compound": "C/C(=N\\NC(=O)c1ccc(F)cc1)c1ccccn1", "measurement qualifier": "=", "pIC50": 6.10}
{"compound": "CC(Oc1ccc(Br)cc1)C(=O)Nc1nc(-c2ccccn2)cs1 (configuration not stated)", "measurement qualifier": "=", "pIC50": 5.28}
